test system: T-47D breast; test: NCI-60 one-dose screen, 48 h (100 = growth as untreated, 0 = no growth, -100 = all killed); details: 10 µM unless noted
This is part of a sample that, as a whole, favours compounds with a hit. Of some 83,000 tested, about 20% had one in any assay. Active and inactive are the calls of the source. How the source made its calls: active means growth percent below 10; inactive means the rest.
Attribute measured: growth

Exercise: Fill in growth for record C=C1C(=O)O[C@H]2[C@H]1CC/C(CNC(=O)CCc1ccc(OC)cc1)=C\CC[C@@]1(C)O[C@@H]21
Solution: 40.8% (inactive)

Exercise: Fill in growth for record CCOC(=O)CC1CSC(N/N=C/c2ccc(-n3cccn3)cc2)=N1 (stereo not given)
Solution: 106% (inactive)

Exercise: Fill in growth for record CCCCOc1ccc(/C(C)=N/Nc2cc(C)nc3ccc(Br)cc23)cc1
Solution: 85.5% (inactive)

Exercise: Fill in growth for record CNCCn1c(=O)c2cc(OC)c(OC)cc2c2ccc3cc4c(cc3c21)OCO4
Solution: 6.22% (active)

Exercise: Fill in growth for record COc1cc(/C=N/NC(=O)c2cnn3c2NC(c2ccccc2)C3)ccc1Oc1ccccc1 (stereo not given)
Solution: 28.6% (inactive)

###

test system: IGROV1 ovarian; assay: NCI-60 one-dose screen, 48 h (100 = growth as untreated, 0 = no growth, -100 = all killed); settings: 10 µM unless noted
The panel holds about 83,000 compounds, 20% with a hit somewhere; the sample as a whole holds those more often. Active and inactive are the calls of the source. Rule for the calls: active = growth percent below 10; inactive = the rest.
Attribute measured: growth

Exercise: Fill in growth for record O=C(C1CCC1)N1N=C(c2ccc(-n3ccc(C(F)(F)F)n3)cc2)CC1c1ccc[nH]1 (centres undefined)
Solution: 99.6% (inactive)

Exercise: Fill in growth for record CCCCCN1C=C/C(=C\C(=O)N2CCCc3ccccc32)c2ccccc21
Solution: 77.9% (inactive)

Exercise: Fill in growth for record COc1cccc(-c2cc(C(=O)Nc3ccc(/C=C/c4ccc(OC5CCN(C)CC5)cc4)cc3)ccc2OC)c1
Solution: -56.3% (active)

Exercise: Fill in growth for record O=C(c1nc2ccccc2[nH]1)C1C(c2ccc(Cl)cc2)C2CC3CCCC[C@H]3N2[C@@]12C(=O)Nc1cc(Cl)ccc12 (some centres undefined)
Solution: 32% (inactive)

Exercise: Fill in growth for record O=[N+]([O-])c1ccc(NC(=S)N/N=C/c2cc3ccccc3n3nnnc23)cc1
Solution: 54.5% (inactive)

Exercise: Fill in growth for record COc1ccc(C(=O)C2C(C#N)C(C#N)C3C=Cc4ccccc4N32)cc1 (centres undefined)
Solution: 23.2% (inactive)

Exercise: Fill in growth for record NC(=O)CSSCC(N)=O
Solution: 97.8% (inactive)

Exercise: Fill in growth for record COc1ccc(C/C(=C(\C)c2ccc(OCCN3CCCC3)cc2)c2ccc(OCCN3CCCC3)cc2)cc1
Solution: 64.1% (inactive)

Exercise: Fill in growth for record N#Cc1c(NCc2ccccc2I)sc2c1CCCCC2
Solution: 71.9% (inactive)

Exercise: Fill in growth for record CCN(c1ccccc1)S(=O)(=O)c1cc([N+](=O)[O-])ccc1Cl
Solution: 54% (inactive)

Exercise: Fill in growth for record NC(=NCc1ccccc1)C(N=Nc1ccccc1)C(=O)NCc1ccccc1 (centres undefined)
Solution: 81.5% (inactive)

Exercise: Fill in growth for record Cc1c(C(=O)NCCC(=O)NO)sc2ncnc(Nc3ccc(NC(=O)Nc4cccc(C(F)(F)F)c4)cc3)c12
Solution: 102% (inactive)

Exercise: Fill in growth for record CCCCCCCC(=O)OCC/C=C/C1OC1C1OC(=O)/C=C\C=C\C(=O)N(C(C)=O)C(=O)/C=C(/C)CCC2OC2C1OC(=O)NC(C)=O (centres undefined)
Solution: 62.7% (inactive)

Exercise: Fill in growth for record CC(C)(C)c1cc(/C=N/NC(=O)c2ccccc2NC(=O)c2cccs2)c(O)c(C(C)(C)C)c1
Solution: 36.3% (inactive)

Exercise: Fill in growth for record Cc1ccc(S(=O)(=O)Nn2c3c(cc(-c4nc5ccccc5s4)c2=O)CCCCCC3)cc1
Solution: 95.3% (inactive)

Exercise: Fill in growth for record C#CCNC(=O)c1cccc2c1cc(C)n2-c1nc2c(c(NCc3ccccc3)n1)CCCC2
Solution: -21.7% (active)

Exercise: Fill in growth for record C/C(=N\NC(=O)CSc1nc2ccccc2c(=O)n1CCc1ccc(S(N)(=O)=O)cc1)c1ccccn1
Solution: 45.5% (inactive)

Exercise: Fill in growth for record Cn1c(-c2c(N)n(CCCN3CCOCC3)c3nc(C#N)c(C#N)nc23)nc2ccccc21
Solution: 65.6% (inactive)

Exercise: Fill in growth for record CC(Sc1nc2sc3c(c2c(=O)n1-c1ccc(Cl)cc1)CCCC3)C(=O)Nc1nc(-c2ccc(Br)cc2)cs1 (centres undefined)
Solution: 96% (inactive)
